Where do these numbers come from? They come from paper PMC9516332.

# System: 134 cancer cell lines
# run description: Cell viability assay (ATPlite, 72 hours), IC50 on cancer cell line panel
# particulars: Homo sapiens, LoVo, read-out: IC50 in cell proliferation assay, LoVo cell line
pIC50: −log10 of the molar value.
Rule: pIC50 under 6 gives false, otherwise true.

1) O=C(c1ccc(F)c(F)c1Nc1ccc(I)cc1F)N1CC(O)([C@@H]2CCCCN2)C1: true
2) Cn1cnc2c(F)c(Nc3ccc(Br)cc3F)c(C(=O)NOCCO)cc21: true

Kindly review the next compound as well.
Prompt line: # check: pIC50 of Cn1cnc2c(F)c(Nc3ccc(Br)cc3Cl)c(C(=O)NOCCO)cc21 is greater than or equal to 6
Response line: true
